# Assayed System: ATP-dependent translocase ABCB1 (Homo sapiens, UniProt P08183)
# Sequence (P08183 whole entry): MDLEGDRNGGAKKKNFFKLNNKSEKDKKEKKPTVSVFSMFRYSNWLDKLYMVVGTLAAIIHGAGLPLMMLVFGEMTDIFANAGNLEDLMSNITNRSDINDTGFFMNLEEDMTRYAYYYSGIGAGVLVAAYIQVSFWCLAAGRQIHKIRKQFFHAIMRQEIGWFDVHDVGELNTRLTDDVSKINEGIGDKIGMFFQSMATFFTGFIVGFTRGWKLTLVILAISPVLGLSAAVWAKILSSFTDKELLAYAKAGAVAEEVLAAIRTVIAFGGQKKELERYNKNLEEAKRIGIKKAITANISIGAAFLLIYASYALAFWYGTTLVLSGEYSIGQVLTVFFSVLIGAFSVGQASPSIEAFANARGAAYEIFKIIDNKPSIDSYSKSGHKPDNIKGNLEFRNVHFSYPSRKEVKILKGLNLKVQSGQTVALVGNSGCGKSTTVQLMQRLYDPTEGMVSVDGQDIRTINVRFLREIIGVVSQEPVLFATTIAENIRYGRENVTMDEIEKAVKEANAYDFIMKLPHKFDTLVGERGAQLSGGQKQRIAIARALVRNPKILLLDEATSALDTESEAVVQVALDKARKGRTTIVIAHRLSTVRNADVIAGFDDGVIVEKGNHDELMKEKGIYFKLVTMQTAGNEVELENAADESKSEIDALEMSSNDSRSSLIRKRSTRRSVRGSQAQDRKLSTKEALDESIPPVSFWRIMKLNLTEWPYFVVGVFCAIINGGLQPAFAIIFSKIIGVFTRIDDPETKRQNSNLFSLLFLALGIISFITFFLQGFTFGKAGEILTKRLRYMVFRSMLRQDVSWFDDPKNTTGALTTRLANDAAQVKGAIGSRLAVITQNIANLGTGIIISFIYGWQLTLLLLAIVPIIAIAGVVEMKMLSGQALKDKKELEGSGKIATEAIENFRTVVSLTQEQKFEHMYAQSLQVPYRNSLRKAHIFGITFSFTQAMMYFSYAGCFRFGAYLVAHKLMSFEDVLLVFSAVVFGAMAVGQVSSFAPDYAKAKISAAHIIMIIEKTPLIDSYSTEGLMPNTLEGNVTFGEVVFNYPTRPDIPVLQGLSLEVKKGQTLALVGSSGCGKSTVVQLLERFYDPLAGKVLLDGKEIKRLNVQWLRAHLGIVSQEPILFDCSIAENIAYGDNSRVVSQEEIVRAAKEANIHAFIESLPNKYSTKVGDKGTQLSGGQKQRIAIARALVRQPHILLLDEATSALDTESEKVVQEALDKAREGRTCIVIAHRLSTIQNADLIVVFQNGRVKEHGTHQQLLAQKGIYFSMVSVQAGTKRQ
# Assay Summary: Inhibition of full length human ABCB1 expressed in Flp-In-293 cells at 2.5 uM incubated for 30 mins by calcein-AM uptake assay relative to control
# Type: cell-based
# Measurement Parameters: 0.5 h
Reported Endpoint: fold change (FC)

Task: Return reported fold change (FC); argument: `O=c1c(-c2ccccc2C(F)(F)F)coc2c1c(O)cc1occ(-c3ccccc3C(F)(F)F)c(=O)c12`
Result: 0.76

Task: Item under review: `O=c1c(-c2cccc(O)c2)coc2cc3occ(-c4cccc(O)c4)c(=O)c3c(O)c12` . Reported fold change (FC)?
Result: 1.33

Task: // returns reported fold change (FC) for input `O=c1c(-c2ccc([N+](=O)[O-])cc2)coc2c1c(O)cc1occ(-c3ccc([N+](=O)[O-])cc3)c(=O)c12`
Result: 0.88

Task: What does the data say about its fold change (FC)? Entry: `O=c1c(-c2ccccc2Cl)coc2cc3occ(-c4ccccc4Cl)c(=O)c3c(O)c12`
Result: 0.71
